Cited source for all entries: PubChem BioAssay (NCI)

run_description: NCI Yeast Anticancer Drug Screen. Data for the rad50 strain (AID 155);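 also: 0% = growth of vehicle-only cultures of the same strain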
run_conditions: S. cerevisiae rad50 strain growth inhibition; at 50.0 µM; hits give high values
Compounds without any hit were thinned out: in the full panel of roughly 79,000, 15% have a hit. The source made the active and inactive calls. Rule as the data show it: active = growth inhibition above about 70%; inactive = the rest.

- compound: "CSc1nnc(SC)nn1"
  growth inhibition: "82.2% (active)"
- compound: "CCCCCCCCCCCC1N=C(N)NC(CCCO)=C1C(=O)OC (stereo unspecified)"
  growth inhibition: "89.2% (active)"
- compound: "CNC(=O)OCc1c(COC(=O)NC)c(-c2ccc(Cl)cc2)n2c1CCC2"
  growth inhibition: "56.3% (inactive)"
- compound: "CCOc1ccc(NC(=O)C2=C(C)NC(C)=C(C(=O)Nc3ccc(OCC)cc3)C2c2cccc([N+](=O)[O-])c2)cc1"
  growth inhibition: "26.4% (inactive)"
- compound: "OC(CCNCc1ccccc1)c1ccc2ccccc2c1 (stereo unspecified)"
  growth inhibition: "75.5% (active)"
- compound: "O=c1nc2n(Cc3ccccc3)c3ccccc3nc-2c(=O)[nH]1"
  growth inhibition: "26.1% (inactive)"
- compound: "O=C1NC(SSC2=NNC3(C(=O)N2)c2ccccc2-c2ccccc23)=NNC12c1ccccc1-c1ccccc12"
  growth inhibition: "96.2% (active)"
- compound: "CCc1nc2ccc(NCCN(C)C)c3c(=O)c4ccccc4n1c23"
  growth inhibition: "29.1% (inactive)"
- compound: "NNC(=O)CCc1cc2ccccc2c2ccccc12"
  growth inhibition: "97.9% (active)"
- compound: "CNCCCNc1c2ccccc2nc2cccc([N+](=O)[O-])c12"
  growth inhibition: "84.8% (active)"
- compound: "Nc1ccc(F)cc1S"
  growth inhibition: "51.1% (inactive)"

---

Entries and their measured growth inhibition follow.
run_description: NCI Yeast Anticancer Drug Screen. Data for the mgt1 strain (AID 153)
run_conditions: S. cerevisiae mgt1 mutant growth inhibition; at 11.0 µM; hits give high values
Compounds without any hit were thinned out: in the full panel of roughly 79,000, 15% have a hit. Calls of active or inactive are those of the source. No stated cut-off is given here; in the data, active means growth inhibition above about 70%; inactive means the rest.
measurement_name: growth inhibition

- compound: "O=C1Nc2ccc(Br)cc2C1=Nc1ccc2c(c1)OCO2"
  measurement_name: "growth inhibition"
  observed_result: "-15% (inactive)"
- compound: "CC1SC2(C(=O)Nc3ccc(Cl)cc32)N(c2ccc(Cl)cc2)C1=O (stereo unspecified)"
  measurement_name: "growth inhibition"
  observed_result: "3% (inactive)"
- compound: "CCc1nc2ccc(NCCN(C)C)c3c(=O)c4ccccc4n1c23"
  measurement_name: "growth inhibition"
  observed_result: "29% (inactive)"
- compound: "O=C(c1ccc([N+](=O)[O-])cc1)C1N=NCC1c1ccccc1 (stereo unspecified)"
  measurement_name: "growth inhibition"
  observed_result: "0% (inactive)"
- compound: "COC1=C(N)C(=O)c2nc(-c3nc(C(=O)O)c(C)c(-c4ccc(OC)c(OC)c4O)c3N)ccc2C1=O"
  measurement_name: "growth inhibition"
  observed_result: "98% (active)"
- compound: "Cc1cc(NCCCCCCCCNc2cc(C)nc3cc(N)ccc23)c2ccc(N)cc2n1"
  measurement_name: "growth inhibition"
  observed_result: "80% (active)"
- compound: "O=C1C(Br)=C(c2ccccc2)O/C1=C/C(=O)c1ccc(Br)cc1"
  measurement_name: "growth inhibition"
  observed_result: "10% (inactive)"
- compound: "C[C@@](O)(/C=C/[C@H]1CC=CC(=O)O1)[C@@H](C[C@@H](O)\\C=C/C=C\\C=C\\CO)OP(=O)(O)O"
  measurement_name: "growth inhibition"
  observed_result: "33% (inactive)"
- compound: "NC(=O)C(=O)NNc1ccccc1"
  measurement_name: "growth inhibition"
  observed_result: "28% (inactive)"
- compound: "CNC(=O)OCc1c(COC(=O)NC)c(-c2ccc(Cl)c(Cl)c2)n2c1SCC2"
  measurement_name: "growth inhibition"
  observed_result: "-1% (inactive)"
- compound: "CCCCOC(=O)Nc1ccc(C)c(NC(=O)OCCCC)c1"
  measurement_name: "growth inhibition"
  observed_result: "-4% (inactive)"
- compound: "CNCCCNc1c2ccccc2nc2cccc([N+](=O)[O-])c12"
  measurement_name: "growth inhibition"
  observed_result: "72% (active)"
- compound: "C=C1CC(CCCl)(c2ccccc2)OC1=O (stereo unspecified)"
  measurement_name: "growth inhibition"
  observed_result: "78% (active)"
- compound: "CCOC(=N)c1ccc(O)c(OC)c1"
  measurement_name: "growth inhibition"
  observed_result: "-2% (inactive)"
- compound: "O/N=C\\c1c(O)ccc2ccccc12"
  measurement_name: "growth inhibition"
  observed_result: "1% (inactive)"
- compound: "CC(=O)OCC(C)Cc1cc2c(cc1Br)OCO2 (stereo unspecified)"
  measurement_name: "growth inhibition"
  observed_result: "-8% (inactive)"
- compound: "O=[N+]([O-])c1cc[n+]([O-])cc1"
  measurement_name: "growth inhibition"
  observed_result: "-3% (inactive)"
- compound: "CC(C)(C)CC(C)(C)c1cc(O)c(O)c(CN2CCCCC2)c1"
  measurement_name: "growth inhibition"
  observed_result: "0% (inactive)"
- compound: "C/C=C/SC(=Nc1ccccc1)Nc1ccccc1"
  measurement_name: "growth inhibition"
  observed_result: "-9% (inactive)"
- compound: "CN(C)CCCCN1c2ccccc2Sc2ccc(N=[N+]=[N-])cc21"
  measurement_name: "growth inhibition"
  observed_result: "31% (inactive)"
- compound: "COC(=O)CC1(O)C(/C=C/c2ccccc2)C(C(=O)OC)C(=O)C(C(=O)OC)C1C(=O)OC (stereo unspecified)"
  measurement_name: "growth inhibition"
  observed_result: "-3% (inactive)"
- compound: "COc1ccc(N=CN(C)C)c(C)c1"
  measurement_name: "growth inhibition"
  observed_result: "-43% (inactive)"
- compound: "CCOC(=O)C(Br)C(Br)c1ccccc1Cl (stereo unspecified)"
  measurement_name: "growth inhibition"
  observed_result: "61% (inactive)"
- compound: "Cn1c(-c2ccc(/C=N\\N3CCN(/N=C/c4ccc(-c5c[n+]6ccccc6n5C)cc4)CC3)cc2)c[n+]2ccccc12"
  measurement_name: "growth inhibition"
  observed_result: "-27% (inactive)"
- compound: "O=C1N=C2SC=C(NC(=S)Nc3ccccc3)N2NC12c1ccccc1-c1ccccc12"
  measurement_name: "growth inhibition"
  observed_result: "30% (inactive)"
- compound: "O=[N+]([O-])c1cc(S(=O)(=O)Nc2ccccc2)ccc1Nc1ccccc1"
  measurement_name: "growth inhibition"
  observed_result: "89% (active)"
- compound: "Cc1ccc(NC(c2ccccc2)c2ccc3cccnc3c2O)cc1 (stereo unspecified)"
  measurement_name: "growth inhibition"
  observed_result: "1% (inactive)"
- compound: "COC(C(O)CO)C(O)C(O)C(=O)NNc1ccccc1 (stereo unspecified)"
  measurement_name: "growth inhibition"
  observed_result: "29% (inactive)"
- compound: "Cc1cc(C)c(NC(=S)NC(=O)c2ccccc2)cc1C"
  measurement_name: "growth inhibition"
  observed_result: "-25% (inactive)"
- compound: "CNC(=O)OCc1c(COC(=O)NC)c(-c2ccc(Cl)cc2)n2c1CCC2"
  measurement_name: "growth inhibition"
  observed_result: "-49% (inactive)"
- compound: "O=C(O)CCCC1CCCc2c1ccc1ccccc21 (stereo unspecified)"
  measurement_name: "growth inhibition"
  observed_result: "4% (inactive)"
- compound: "Nc1ccc(F)cc1S"
  measurement_name: "growth inhibition"
  observed_result: "12% (inactive)"
- compound: "N#CC(=Nc1ccccc1F)Nc1ccccc1F"
  measurement_name: "growth inhibition"
  observed_result: "-4% (inactive)"
- compound: "CC1CC(C)(C)CC(OCCN2CCCCC2)(c2ccccc2)C1 (stereo unspecified)"
  measurement_name: "growth inhibition"
  observed_result: "10% (inactive)"
- compound: "O=c1ccc2ccccc2c2ccccc12"
  measurement_name: "growth inhibition"
  observed_result: "79% (active)"
- compound: "O=C(CC(C(=O)O)N1CCOCC1)c1ccccc1 (stereo unspecified)"
  measurement_name: "growth inhibition"
  observed_result: "1% (inactive)"
- compound: "COc1ccc(C/C=N/Nc2ccc([N+](=O)[O-])cc2)cc1OC"
  measurement_name: "growth inhibition"
  observed_result: "9% (inactive)"
- compound: "CC1=NOC(=O)/C1=C/c1ccc2c(c1)OCO2"
  measurement_name: "growth inhibition"
  observed_result: "1% (inactive)"
- compound: "CCCCCCSc1ncnc2[nH]ncc12"
  measurement_name: "growth inhibition"
  observed_result: "-2% (inactive)"
- compound: "COc1ccc(C(NCCNC(c2ccc(OC)c(OC)c2)c2cc3c(cc2O)OCO3)c2cc3c(cc2O)OCO3)cc1OC (stereo unspecified)"
  measurement_name: "growth inhibition"
  observed_result: "3% (inactive)"
- compound: "Cc1cc(C)nc(NS(=O)(=O)c2ccc(Nc3c4ccccc4nc4c(C(=O)NCCO)cccc34)cc2)n1"
  measurement_name: "growth inhibition"
  observed_result: "-2% (inactive)"
- compound: "Cc1cccc(C(C)(C)C)c1NC(=O)C(C#N)C1=C(Cl)C(=O)c2ccccc2C1=O (stereo unspecified)"
  measurement_name: "growth inhibition"
  observed_result: "49% (inactive)"
- compound: "CCOC(=O)c1cc([N+](=O)[O-])c(Sc2ncnc3nc[nH]c23)c([N+](=O)[O-])c1"
  measurement_name: "growth inhibition"
  observed_result: "16% (inactive)"
- compound: "Cc1ccc2c(c1)C1(SC(C)C(=O)N1c1ccc(Cl)cc1)C(=O)N2 (stereo unspecified)"
  measurement_name: "growth inhibition"
  observed_result: "3% (inactive)"
- compound: "CC(C)/C(Cl)=N\\OC(=O)Nc1ccc(F)cc1F"
  measurement_name: "growth inhibition"
  observed_result: "4% (inactive)"
- compound: "O=P(NC1CCCCC1)(OCc1ccccc1)OCc1ccccc1"
  measurement_name: "growth inhibition"
  observed_result: "4% (inactive)"
